Study target: DNA dC->dU-editing enzyme APOBEC-3G (Homo sapiens) (UniProt Q9HC16)
Sequence (Q9HC16 whole entry, looked up): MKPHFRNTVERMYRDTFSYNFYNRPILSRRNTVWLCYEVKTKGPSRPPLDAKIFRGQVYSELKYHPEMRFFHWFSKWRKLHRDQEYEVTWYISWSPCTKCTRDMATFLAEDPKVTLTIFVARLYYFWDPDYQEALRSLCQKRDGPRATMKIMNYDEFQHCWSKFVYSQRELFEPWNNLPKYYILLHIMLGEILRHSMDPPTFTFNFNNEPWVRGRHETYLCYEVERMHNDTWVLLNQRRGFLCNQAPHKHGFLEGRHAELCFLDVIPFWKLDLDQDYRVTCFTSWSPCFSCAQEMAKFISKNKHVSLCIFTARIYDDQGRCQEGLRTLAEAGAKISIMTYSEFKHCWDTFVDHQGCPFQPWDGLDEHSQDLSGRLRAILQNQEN
Procedure summary: qHTS for inhibitors of Vif-A3G interactions: Cherry picks counterscreen;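 further: potency means the concentration at half of the fitted maximal effect; hits raise yellow fluorescence by blocking Vif-driven A3G-eYFP degradation; nearly all actives have a fitted effect of over 70% in size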
Measurement context: HeLa A3G-eYFP + Vif (tagged APOBEC3G with the HIV-1 protein that degrades it), eYFP fluorescence, 24 h
Screen size: about 2,100 compounds; about 1,100 (52%) were called active. Inconclusive results (about 27%) are left out. The set was probably picked from earlier hits. The list shows a part of the results.
So I've got a bunch of compounds here, and I need their Potency values.

Could I get Potency for every one of these entries?
1. O=c1oc2c3c4c(cc2c(C(F)(F)F)c1CCN1CCOCC1)CCCN4CCC3
2. Cc1ccc(-c2cc(NC=O)c3ncc(-c4cccc(C(=O)N(C)C)c4)n3c2)cc1
3. Cc1cc(/C=C/c2ccnc3ccccc23)ccc1N
4. COc1cccc(C2=CC(c3cccs3)n3nnnc3N2)c1 (configuration not stated)
5. CCc1cc(/C=C/c2ccnc3ccccc23)ccc1N(C)C

1: 2.31 µM (active); 2: 8.86 µM (active); 3: 18.4 µM (active); 4: 2.8 µM (active); 5: 20.6 µM (active)

Take each entry in turn and give its Potency.
1. CCOC(=O)/C=c1\s/c(=C\c2c(OC)ccc3ccccc23)c(=O)n1CC(=O)NCC1CCCO1 (configuration not stated)
2. COc1cccc(C2=CC(c3ccccc3)n3nnnc3N2)c1 (configuration not stated)

1: 14.6 µM (active); 2: 8.86 µM (active)
